B1: TLE6 (parent)
chain: FWHDTLTEQLWRIFAGVHDEKAKP

Variants of: B1
assay_text: protein stability index of a GFP-peptide fusion (GPS, HEK-293T) (PSI 1-6); higher = more stable;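 further: lentivirally expressed fusions sorted by FACS into six bins by GFP to DsRed ratio, PSI derived from sequencing read proportions per bin multiplied by bin number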
experimental_context: c terminus: a fixed tail appended
Measured protein stability index values are reported for all entries that follow.
Hey, just send me the number, nothing else.

variant_description | protein stability index
T5S | 1.98
H18I | 2.92
H18E | 2.07
A15E | 1.77
A22E | 1.75

Q: Which protein stability index reading was recorded for the variant G16R ?
A: 1.6

Q: Which protein stability index is reported for this variant? F1C
A: 2.42
